target.under.test: Sialic acid-binding Ig-like lectin 9 (Homo sapiens) (UniProt Q9Y336)
Sequence (Q9Y336 whole entry): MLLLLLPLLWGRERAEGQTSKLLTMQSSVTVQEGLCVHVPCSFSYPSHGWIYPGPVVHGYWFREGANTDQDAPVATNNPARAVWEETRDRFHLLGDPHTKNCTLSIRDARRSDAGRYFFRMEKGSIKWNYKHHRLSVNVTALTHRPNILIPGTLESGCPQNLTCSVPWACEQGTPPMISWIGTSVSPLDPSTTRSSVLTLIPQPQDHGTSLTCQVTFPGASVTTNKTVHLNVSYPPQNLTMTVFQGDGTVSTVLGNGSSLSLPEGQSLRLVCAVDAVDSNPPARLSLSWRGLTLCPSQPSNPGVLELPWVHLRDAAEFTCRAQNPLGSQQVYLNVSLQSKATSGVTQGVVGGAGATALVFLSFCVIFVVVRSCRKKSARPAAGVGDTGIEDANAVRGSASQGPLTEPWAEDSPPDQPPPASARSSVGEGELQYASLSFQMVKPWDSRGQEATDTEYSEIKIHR
protocol.description: Hs-Siglec9 ALPHAscreen SOP 20170721
Design: scale not given: direction of the effect not stated beside the values
conditions: 10 µM
A collection of compounds and their measured Percent Effect
Answer format: numeric, % implied, no suffix.

Previously resolved entries follow.
compound	experimental.value
O=C(CCN1C(=O)CCC1=O)Nc1cnn(-c2ccccc2Cl)c1	1.29
Cc1cc(NC(=O)NCCc2ccsc2)n(C)n1	15.8
COCCCN(C)C1CCCN(Cc2noc(C)n2)C1 (stereo unspecified)	12.9
CN(CCCc1cnn(C)c1)C(=O)C1CCOC1 (stereo unspecified)	1.94
CN(CC(=O)N1CCC(C(O)c2ccccc2)CC1)c1cnccn1 (stereo unspecified)	9.65
C=Cn1ncc(CN2C[C@@H]3CCCN3C[C@H]2CCSC)c1C	9.13

If you can, please state the reported Percent Effect value of CC(C)(C)C(=O)N1C[C@H](c2ccsc2)[C@H]2CN(Cc3cccs3)CC[C@H]21 .
-5.01

If you can, please state the reported Percent Effect value of Cc1[nH]c(=O)[nH]c(=O)c1CN1CCCC(CCc2ccccc2)C1 (stereo unspecified) .
8.59

If you can, please state the reported Percent Effect value of Cc1cc(C)n(CC2CN(Cc3cccc(C(N)=O)c3)CCO2)n1 (stereo unspecified) .
-0.119

If you can, please state the reported Percent Effect value of Cc1cnc(C(=O)N(CCN(C)C)Cc2ccc(Cl)cc2)cn1 .
9.21

If you can, please state the reported Percent Effect value of CN(C)Cc1cc(=O)n2c(n1)CN(C(=O)Cc1ccsc1)CCC2 .
-0.795

---

target.under.test: Protein translocase subunit SecA (Escherichia coli (strain K12)) (UniProt P10408)
Sequence (P10408 whole entry): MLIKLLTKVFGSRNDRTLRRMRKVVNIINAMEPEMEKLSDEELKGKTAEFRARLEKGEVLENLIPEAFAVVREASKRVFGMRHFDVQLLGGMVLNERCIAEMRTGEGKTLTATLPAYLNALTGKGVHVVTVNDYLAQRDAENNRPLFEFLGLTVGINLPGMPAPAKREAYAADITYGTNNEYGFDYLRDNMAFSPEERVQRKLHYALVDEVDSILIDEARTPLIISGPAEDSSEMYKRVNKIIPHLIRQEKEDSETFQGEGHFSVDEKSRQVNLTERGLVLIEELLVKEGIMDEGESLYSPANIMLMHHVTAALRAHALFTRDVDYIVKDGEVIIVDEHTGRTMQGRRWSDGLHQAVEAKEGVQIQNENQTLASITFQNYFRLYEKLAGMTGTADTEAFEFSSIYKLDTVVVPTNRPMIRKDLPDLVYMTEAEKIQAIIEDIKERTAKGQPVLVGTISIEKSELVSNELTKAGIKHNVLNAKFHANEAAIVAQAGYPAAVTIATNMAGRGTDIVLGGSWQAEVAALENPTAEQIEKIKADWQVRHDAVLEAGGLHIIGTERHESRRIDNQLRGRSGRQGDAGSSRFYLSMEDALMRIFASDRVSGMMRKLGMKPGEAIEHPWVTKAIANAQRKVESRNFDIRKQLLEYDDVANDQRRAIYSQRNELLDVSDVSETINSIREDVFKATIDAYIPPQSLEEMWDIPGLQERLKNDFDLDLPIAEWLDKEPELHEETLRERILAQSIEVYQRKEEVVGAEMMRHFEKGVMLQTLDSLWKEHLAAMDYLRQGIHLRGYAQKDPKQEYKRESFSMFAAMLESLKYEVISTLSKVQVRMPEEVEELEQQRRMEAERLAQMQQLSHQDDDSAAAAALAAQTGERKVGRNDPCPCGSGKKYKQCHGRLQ
protocol.description: Assay to Identify E. coli SecA ATPase Inhibitors
Type: functional
Parameters: scale not given: direction of the effect not stated beside the values
conditions: 30 µM
Results with a measured potency or affinity are listed apart.
measurement.type: Percent Effect (%)
Answer format: numeric, % implied, no suffix.

compound	measurement.type	unit.of.measurement	experimental.value
COc1cccc(-c2noc(C3CCN(Cc4cccs4)C3)n2)c1 (configuration not stated)	Percent Effect	%	4.18

Continue with the compound presented below.
If you can, please state the reported Percent Effect value of CCOC(=O)NC(CNC(=O)c1ccccn1)CC(C)C (configuration not stated) .
-4.62

---

target.under.test: Chromo domain-containing protein 1 (Saccharomyces cerevisiae (strain ATCC 204508 / S288c) (Baker's yeast)) (UniProt P32657)
Sequence (P32657 whole entry, the tested form may be a part): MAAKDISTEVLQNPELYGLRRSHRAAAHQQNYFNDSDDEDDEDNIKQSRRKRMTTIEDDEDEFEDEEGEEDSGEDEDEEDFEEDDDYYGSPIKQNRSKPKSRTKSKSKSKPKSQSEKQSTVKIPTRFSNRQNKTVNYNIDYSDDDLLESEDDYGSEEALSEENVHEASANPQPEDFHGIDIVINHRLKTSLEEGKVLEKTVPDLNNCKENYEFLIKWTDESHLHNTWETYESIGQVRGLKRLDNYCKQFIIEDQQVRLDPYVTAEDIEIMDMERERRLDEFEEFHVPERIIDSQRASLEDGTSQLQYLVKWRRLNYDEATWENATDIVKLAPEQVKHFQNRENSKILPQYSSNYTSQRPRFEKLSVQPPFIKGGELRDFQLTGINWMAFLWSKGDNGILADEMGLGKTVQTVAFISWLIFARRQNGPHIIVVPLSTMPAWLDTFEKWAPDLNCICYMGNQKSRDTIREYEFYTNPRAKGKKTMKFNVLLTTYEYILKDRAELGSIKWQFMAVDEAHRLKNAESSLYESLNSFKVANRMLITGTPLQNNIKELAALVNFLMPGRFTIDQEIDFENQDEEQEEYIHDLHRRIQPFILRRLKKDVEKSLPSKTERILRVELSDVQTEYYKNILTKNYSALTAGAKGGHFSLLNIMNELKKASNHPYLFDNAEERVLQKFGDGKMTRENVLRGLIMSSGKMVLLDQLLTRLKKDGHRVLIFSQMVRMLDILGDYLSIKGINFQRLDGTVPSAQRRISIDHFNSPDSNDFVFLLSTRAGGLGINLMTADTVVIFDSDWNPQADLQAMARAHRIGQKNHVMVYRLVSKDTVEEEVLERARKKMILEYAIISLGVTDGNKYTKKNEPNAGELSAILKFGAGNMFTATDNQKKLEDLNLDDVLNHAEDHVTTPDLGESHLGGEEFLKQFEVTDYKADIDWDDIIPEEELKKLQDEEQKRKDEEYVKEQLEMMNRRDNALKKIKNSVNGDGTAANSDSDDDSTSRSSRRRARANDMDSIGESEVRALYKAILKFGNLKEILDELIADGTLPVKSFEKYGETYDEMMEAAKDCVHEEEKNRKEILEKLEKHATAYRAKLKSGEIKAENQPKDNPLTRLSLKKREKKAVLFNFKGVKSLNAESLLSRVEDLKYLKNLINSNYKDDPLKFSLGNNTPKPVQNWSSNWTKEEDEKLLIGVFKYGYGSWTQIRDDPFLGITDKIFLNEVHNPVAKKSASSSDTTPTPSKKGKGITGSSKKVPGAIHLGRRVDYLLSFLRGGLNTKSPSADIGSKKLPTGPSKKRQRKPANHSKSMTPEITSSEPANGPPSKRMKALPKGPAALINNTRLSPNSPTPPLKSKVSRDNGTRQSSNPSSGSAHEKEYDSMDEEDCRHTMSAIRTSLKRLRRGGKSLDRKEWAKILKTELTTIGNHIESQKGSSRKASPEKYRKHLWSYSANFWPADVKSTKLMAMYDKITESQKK
protocol.description: ScCHD-1 Enzyme Inhibition Assay; also: in the data most compounds retested in dose-response had high values
Assay type: functional
Design: scale not given: direction of the effect not stated beside the values
conditions: 30 µM
A collection of molecules and their measured Percent Effect
Answer format: numeric, % implied, no suffix.

If you can, please state the reported Percent Effect value of CN(C)C(=O)N1CCN(C(=O)C(c2ccccc2F)N(C)C)CC1 (stereo unspecified) .
-9.49

---

A collection of compounds and their measured Percent Effect
target.under.test: AMP-activated protein kinase, AMPK (Homo sapiens) (UniProt P54646+O43741+P54619+Q9UGJ0+Q9Y478+Q13131+Q9UGI9)
protocol.description: AMP-dependent Kinase enzyme assay. An in vitro enzyme assay that detects ADP turnover that is directly proportional to AMPK activity. This uses naive AMPK that is activated during the assay with MK-8722
Assay type: functional
Design: scale not given: direction of the effect not stated beside the values
conditions: 30 µM
Answer format: numeric, % implied, no suffix.

Previously resolved entries follow.
compound	unit.of.measurement	Percent Effect
COC(=O)CCC(=O)N1CCc2[nH]nc(-c3ccc(F)c(F)c3)c2C1	%	8.72
CC(C)(C)C(=O)N1CCC(c2nc(O)cc(-c3ccccn3)n2)CC1	%	8.91
COc1ccccc1CC(=O)NCCCN1CCCC1C(=O)N(C)C (centres undefined)	%	-2.99
COc1cccc2ccn(CCC(=O)N3CCCC(C(=O)O)C3)c12 (centres undefined)	%	5.95
c1ccc(-n2ccnc2)c(CNCC2CNc3ccnn3C2)c1 (centres undefined)	%	-5.79
CCn1ccnc1CN1CCCN(C(=O)Cn2nc(C)cc2C)CC1	%	9.91
CCN1CCCC1CN(CCN(C)C)S(=O)(=O)c1ccc(C#N)cc1 (centres undefined)	%	-10.9
CC(C(=O)N1CCCN(c2ncccc2C#N)CC1)n1cccn1 (centres undefined)	%	0.522

If you can, please state the reported Percent Effect value of Cc1nc(CCNC(=O)NCc2ccc(N(C)C)nc2)cs1 .
-4.65

If you can, please state the reported Percent Effect value of Cn1cc(CN2CCCC3(CCN(Cc4cccnc4)C3=O)C2)cn1 (centres undefined) .
-0.596

If you can, please state the reported Percent Effect value of COc1cc(C(=O)Nc2c(C)noc2C)ccc1C .
2.44

If you can, please state the reported Percent Effect value of CCn1cc(CN(C)C(=O)c2cccc(CCC(C)(C)O)c2)cn1 .
-1.82

If you can, please state the reported Percent Effect value of CC(=O)N1CC(=O)N(c2cnn(C)c2)CC12CCN(CC1CC1)C2 (centres undefined) .
1.91

If you can, please state the reported Percent Effect value of CC1CCCN(Cc2csc(-c3ncccn3)n2)CC1 (centres undefined) .
-12.5

If you can, please state the reported Percent Effect value of O=C(CCN1C(=O)CCC1=O)Nc1cnn(-c2ccccc2Cl)c1 .
6.39

If you can, please state the reported Percent Effect value of O=C(O)c1cc(S(=O)(=O)Nc2ccc(Cl)cc2)cc2c1OCCO2 .
4.72

If you can, please state the reported Percent Effect value of Cc1nn(C)c(C)c1C1CCCN1C(=O)c1ccc(Cl)o1 (centres undefined) .
0.29

If you can, please state the reported Percent Effect value of COCC(=O)N1CCC(c2nccn2CC2CC2)CC1 .
-6.45

---

A collection of molecules and their measured Percent Effect
target.under.test: Ubiquitin-activating enzyme e1, putative (Leishmania donovani (strain BPK282A1))
protocol.description: Leishmania donovani Ubiquitin Activating Enzyme (LdE1)
Assay type: functional
Set-up: scale not given: direction of the effect not stated beside the values
conditions: 30 µM
Potency and affinity values are given separately.
Answer format: numeric, % implied, no suffix.

molecule	Percent Effect (%)
O=C(C1CCOCC1)N1CC[C@H]2C[C@@H](c3ccncn3)O[C@@H]2C1	3.9

If you can, please state the reported Percent Effect value of CCC1CN(C(=O)c2ccc(Cl)cc2O)CCN1C(C)C (stereo not given) .
2.7

If you can, please state the reported Percent Effect value of O=C(c1ccccn1)N1CCn2cnc(COCC3CC3)c2C1 .
0

If you can, please state the reported Percent Effect value of CCn1cnnc1C1CCN(C(=O)COCCc2ccccc2)CC1 .
7.79

If you can, please state the reported Percent Effect value of CCCNCc1cn(C)nc1-c1cccnc1 .
-2.7

If you can, please state the reported Percent Effect value of O=C(NCC(O)CN1CCc2ccccc2C1)Nc1cccnc1 (stereo not given) .
13

---

A collection of molecules and their measured Percent Effect
Species: Homo sapiens
protocol.description: To identify inhibition of the IFN signalling (Jak-Stat) pathway via expression of an eGFP reporter gene under the control of an IFN-stimulated response element (ISRE) containing MxA promoter.
Assay type: functional
Parameters: scale not given: direction of the effect not stated beside the values
conditions: 30 µM
Answer format: numeric, % implied, no suffix.

If you can, please state the reported Percent Effect value of COc1ccc(C2=CCN(C(=O)CN(C)Cc3ccoc3)CC2)cc1 .
28.5

If you can, please state the reported Percent Effect value of CCn1c(C)cc(C(=O)N2CCCC(n3nc(C)nc3C)C2)c1C (stereo unspecified) .
4.11

If you can, please state the reported Percent Effect value of CC(C)c1n[nH]c(C(=O)Nc2ccnn2C(C)C)c1Br .
39.4

If you can, please state the reported Percent Effect value of CN(C)S(=O)(=O)N1C[C@@H](Oc2ccccn2)[C@H]2OCCC[C@H]21 .
24.1

If you can, please state the reported Percent Effect value of c1cnc(-c2nc(CN3CCOC(Cn4cncn4)C3)cs2)nc1 (stereo unspecified) .
18.1

---

A collection of compounds and their measured Percent Effect
Test system: Trypanosoma cruzi
protocol.description: Trypanosoma cruzi phosphomannomutase and mannose-1-phosphate guanylyltransferase assay
Format: functional
Design: scale not given: direction of the effect not stated beside the values
conditions: 10 µM
Answer format: numeric, % implied, no suffix.

Previously resolved entries follow.
compound	unit.of.measurement	Percent Effect
CC(C)c1nc(C2CCCN(C(=O)c3ccc4nccn4c3)C2)no1 (centres undefined)	%	-1.47
COc1ccc(-c2ccnc3c2C(=O)CCC3)cc1	%	0.789
Cc1cc(S(=O)(=O)N2CCC(S(C)(=O)=O)CC2)ccc1F	%	-0.493
Cc1nn(C)c2c(NCCCn3cccn3)ncnc12	%	3.34
CCc1cnc(N2CCC3(CC2)CN(c2cccnc2)C(=O)CO3)nc1	%	-3.03
CCN1CCC(NC(=O)CN2CCc3c(nc(C4CC4)n3C)C2)CC1	%	0.374
COc1ccc(OC)c(CCNC(=O)NC(C)Cn2ccnc2)c1 (centres undefined)	%	-9.77
CC(O)CN1CCC(CNCc2cccc(C(N)=O)c2)CC1 (centres undefined)	%	3.11
COc1cc(S(=O)(=O)N2CCCc3ccccc32)cc(C(=O)O)c1OC	%	-0.201
Fc1ccc(CN2CCCC2Cn2cccn2)c2ncccc12 (centres undefined)	%	-2.51

If you can, please state the reported Percent Effect value of CCCc1noc(CN2CCCC2c2c(C)nn(C)c2OC)n1 (centres undefined) .
-1.61

If you can, please state the reported Percent Effect value of CC(C)(C)c1n[nH]c(C2CN(C(=O)CCc3cscn3)CCO2)n1 (centres undefined) .
4.41

If you can, please state the reported Percent Effect value of CC1CN(Cc2nccn2C)CCN1c1ccc2nncn2n1 (centres undefined) .
5.62

If you can, please state the reported Percent Effect value of Cc1c(F)cc(C(=O)O)cc1S(=O)(=O)Nc1ccc2c(c1)OCCO2 .
7.42

If you can, please state the reported Percent Effect value of CCn1c(C(=O)N2CCN(C(=O)COC)CC2)cc2ccccc21 .
11.4

If you can, please state the reported Percent Effect value of O=C(CSc1ccccn1)N1C[C@H]2CC[C@@H]1CN(Cc1cscn1)C2 .
-3.78

If you can, please state the reported Percent Effect value of Cc1oc(-c2ccco2)nc1CC(=O)N1CCC(C(O)C(F)(F)F)CC1 (centres undefined) .
6.76

If you can, please state the reported Percent Effect value of Cc1cnn(CC2CCCN2CC(=O)Nc2cc(C)nn2C)c1 (centres undefined) .
2.8

If you can, please state the reported Percent Effect value of COc1ccc(C2CC(=O)Nc3c2nc2n3CCCC2)cc1O (centres undefined) .
-2.04

If you can, please state the reported Percent Effect value of C[C@@H]1CN(C(=O)c2cnc(C3CC3)nc2)CC[C@@]1(O)C1CCOCC1 .
4.44

If you can, please state the reported Percent Effect value of COc1cccc(C(=O)NCCCN2CCc3ccccc3C2)c1OC .
-2.81

If you can, please state the reported Percent Effect value of N#Cc1ccccc1N1CCCN(C(=O)CCc2nccs2)CC1 .
-4.25

If you can, please state the reported Percent Effect value of Cc1ccc(CNCC2CCc3nnc(C(C)C)n3C2)s1 (centres undefined) .
-1.46

If you can, please state the reported Percent Effect value of Cc1ccc2oc(C(=O)N3CCCC(n4nc(C)cc4C)C3)cc2n1 (centres undefined) .
0.845
